Below, each entry is listed with its recorded kinase still bound, per cent of control.
Target: ZAP70 (human) (UniProt P43403)
Sequence (P43403 whole entry, looked up): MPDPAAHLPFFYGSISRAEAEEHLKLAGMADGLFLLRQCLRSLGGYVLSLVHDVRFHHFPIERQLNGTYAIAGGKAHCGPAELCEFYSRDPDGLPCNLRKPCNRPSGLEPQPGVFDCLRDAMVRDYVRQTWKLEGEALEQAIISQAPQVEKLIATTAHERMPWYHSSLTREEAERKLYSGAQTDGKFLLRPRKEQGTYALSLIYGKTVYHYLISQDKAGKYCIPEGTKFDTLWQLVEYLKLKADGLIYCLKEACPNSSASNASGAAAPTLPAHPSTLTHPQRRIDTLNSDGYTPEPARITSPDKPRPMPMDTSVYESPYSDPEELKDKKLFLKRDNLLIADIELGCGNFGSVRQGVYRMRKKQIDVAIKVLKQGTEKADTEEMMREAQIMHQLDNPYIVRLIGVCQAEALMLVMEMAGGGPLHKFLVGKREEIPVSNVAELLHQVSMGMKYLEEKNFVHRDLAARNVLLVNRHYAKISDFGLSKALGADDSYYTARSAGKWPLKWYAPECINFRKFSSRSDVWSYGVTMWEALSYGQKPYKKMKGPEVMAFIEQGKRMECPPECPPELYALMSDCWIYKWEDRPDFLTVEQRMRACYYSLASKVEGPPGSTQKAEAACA
Experiment: KINOMEscan competition binding
Conditions: compound 10.0 µM
Your answer is read as %, so omit the unit and give the number.

The recorded kinase still bound, per cent of control for entry `Cn1cc(C2=C(c3ccc(Cl)cc3Cl)C(=O)NC2=O)c2ccccc21` equals 100

Data point: `O=C1Nc2cc(Br)ccc2/C1=C1/Nc2ccccc2/C1=N\O` ; kinase still bound, per cent of control = 90

Form field kinase still bound, per cent of control, entry `COc1ccc(CNC(=O)Nc2ncc([N+](=O)[O-])s2)cc1` : 100

Summary for this molecule, `Cc1cnc(-c2cnc(NCCNc3ccc(C#N)cn3)nc2-c2ccc(Cl)cc2Cl)[nH]1` : kinase still bound, per cent of control is 100

---

Molecular target: GAK (human) (UniProt O14976)
Sequence (O14976 whole entry, looked up): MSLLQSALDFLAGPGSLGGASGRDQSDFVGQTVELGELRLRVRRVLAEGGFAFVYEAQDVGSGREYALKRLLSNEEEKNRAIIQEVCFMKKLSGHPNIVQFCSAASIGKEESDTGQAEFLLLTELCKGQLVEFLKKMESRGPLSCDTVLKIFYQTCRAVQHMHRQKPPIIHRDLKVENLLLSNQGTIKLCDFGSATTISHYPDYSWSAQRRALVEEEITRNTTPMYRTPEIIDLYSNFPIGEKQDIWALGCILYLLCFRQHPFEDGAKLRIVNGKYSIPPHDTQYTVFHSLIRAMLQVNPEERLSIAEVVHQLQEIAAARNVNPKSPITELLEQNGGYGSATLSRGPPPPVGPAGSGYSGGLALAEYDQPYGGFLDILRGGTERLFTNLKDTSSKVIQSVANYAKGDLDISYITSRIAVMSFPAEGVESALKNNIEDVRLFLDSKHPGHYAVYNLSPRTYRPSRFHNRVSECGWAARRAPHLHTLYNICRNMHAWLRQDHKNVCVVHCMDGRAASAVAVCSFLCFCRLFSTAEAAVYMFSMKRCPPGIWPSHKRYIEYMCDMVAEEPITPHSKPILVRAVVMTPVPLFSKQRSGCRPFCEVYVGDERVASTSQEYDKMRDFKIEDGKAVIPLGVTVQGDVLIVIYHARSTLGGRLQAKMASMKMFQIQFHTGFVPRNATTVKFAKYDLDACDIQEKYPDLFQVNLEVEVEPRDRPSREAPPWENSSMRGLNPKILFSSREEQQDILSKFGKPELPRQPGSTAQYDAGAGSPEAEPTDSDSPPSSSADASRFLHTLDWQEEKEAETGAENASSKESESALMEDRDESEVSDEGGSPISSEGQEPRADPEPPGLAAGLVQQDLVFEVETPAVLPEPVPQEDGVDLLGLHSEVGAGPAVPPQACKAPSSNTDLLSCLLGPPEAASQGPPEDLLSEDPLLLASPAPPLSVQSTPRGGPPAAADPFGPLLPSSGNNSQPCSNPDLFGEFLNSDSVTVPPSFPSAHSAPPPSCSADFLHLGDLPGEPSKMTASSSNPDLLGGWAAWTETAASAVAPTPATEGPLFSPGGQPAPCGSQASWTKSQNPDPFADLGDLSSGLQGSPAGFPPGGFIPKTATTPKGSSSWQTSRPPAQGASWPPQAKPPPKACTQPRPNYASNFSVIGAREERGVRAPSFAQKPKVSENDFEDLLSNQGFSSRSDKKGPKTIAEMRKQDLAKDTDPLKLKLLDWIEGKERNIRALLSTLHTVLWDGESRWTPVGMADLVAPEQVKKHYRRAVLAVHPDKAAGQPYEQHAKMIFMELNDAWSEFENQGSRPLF
Assay: KINOMEscan competition binding
Conditions: compound 10.0 µM
parameter: kinase still bound, per cent of control (%)
Report the figure in % without appending any unit label.

>  <chemical.structure>
O=C1Nc2cc(Br)ccc2/C1=C1/Nc2ccccc2/C1=N\O

>  <parameter>
kinase still bound, per cent of control

>  <measured.value>
2.1

$$$$

Lab note: measured kinase still bound, per cent of control of `COc1ccc(CNC(=O)Nc2ncc([N+](=O)[O-])s2)cc1` was 98

Per the record, `Cc1cnc(-c2cnc(NCCNc3ccc(C#N)cn3)nc2-c2ccc(Cl)cc2Cl)[nH]1` has kinase still bound, per cent of control of 79

Per the record, `Cn1cc(C2=C(c3ccc(Cl)cc3Cl)C(=O)NC2=O)c2ccccc21` has kinase still bound, per cent of control of 74

---

Reported kinase still bound, per cent of control is given for each of the following molecules.
Molecular target: MKNK1 (human) (UniProt Q9BUB5)
Sequence (Q9BUB5 whole entry, looked up): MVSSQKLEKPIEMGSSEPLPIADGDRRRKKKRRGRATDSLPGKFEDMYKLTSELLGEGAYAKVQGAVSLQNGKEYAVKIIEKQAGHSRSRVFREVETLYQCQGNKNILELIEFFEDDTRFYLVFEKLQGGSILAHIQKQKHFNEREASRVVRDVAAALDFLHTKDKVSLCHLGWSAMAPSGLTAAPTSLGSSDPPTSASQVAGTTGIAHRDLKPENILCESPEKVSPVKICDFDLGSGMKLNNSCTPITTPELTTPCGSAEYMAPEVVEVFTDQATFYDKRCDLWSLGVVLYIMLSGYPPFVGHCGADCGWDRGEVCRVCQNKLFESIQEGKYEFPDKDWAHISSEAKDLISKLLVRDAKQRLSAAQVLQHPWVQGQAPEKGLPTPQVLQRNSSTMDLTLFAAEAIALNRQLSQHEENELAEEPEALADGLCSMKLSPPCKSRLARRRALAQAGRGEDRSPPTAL
Test: KINOMEscan competition binding
Conditions: compound 10.0 µM
Report the figure in % without appending any unit label.

Below, each entry is followed by its recorded kinase still bound, per cent of control result.
>  <chemical.structure>
COc1ccc(CNC(=O)Nc2ncc([N+](=O)[O-])s2)cc1

>  <assayed.system>
MKNK1 (human) (UniProt Q9BUB5)

>  <kinase still bound, per cent of control [%]>
100

$$$$
>  <chemical.structure>
O=C1Nc2cc(Br)ccc2/C1=C1/Nc2ccccc2/C1=N\O

>  <assayed.system>
MKNK1 (human) (UniProt Q9BUB5)

>  <kinase still bound, per cent of control [%]>
51

$$$$
>  <chemical.structure>
Cn1cc(C2=C(c3ccc(Cl)cc3Cl)C(=O)NC2=O)c2ccccc21

>  <assayed.system>
MKNK1 (human) (UniProt Q9BUB5)

>  <kinase still bound, per cent of control [%]>
84

$$$$

Query molecule follows.
Kindly note the recorded kinase still bound, per cent of control for `Cc1cnc(-c2cnc(NCCNc3ccc(C#N)cn3)nc2-c2ccc(Cl)cc2Cl)[nH]1` , which is 100

---

Target: PTK2 (human) (UniProt Q05397)
Sequence (Q05397 whole entry, looked up): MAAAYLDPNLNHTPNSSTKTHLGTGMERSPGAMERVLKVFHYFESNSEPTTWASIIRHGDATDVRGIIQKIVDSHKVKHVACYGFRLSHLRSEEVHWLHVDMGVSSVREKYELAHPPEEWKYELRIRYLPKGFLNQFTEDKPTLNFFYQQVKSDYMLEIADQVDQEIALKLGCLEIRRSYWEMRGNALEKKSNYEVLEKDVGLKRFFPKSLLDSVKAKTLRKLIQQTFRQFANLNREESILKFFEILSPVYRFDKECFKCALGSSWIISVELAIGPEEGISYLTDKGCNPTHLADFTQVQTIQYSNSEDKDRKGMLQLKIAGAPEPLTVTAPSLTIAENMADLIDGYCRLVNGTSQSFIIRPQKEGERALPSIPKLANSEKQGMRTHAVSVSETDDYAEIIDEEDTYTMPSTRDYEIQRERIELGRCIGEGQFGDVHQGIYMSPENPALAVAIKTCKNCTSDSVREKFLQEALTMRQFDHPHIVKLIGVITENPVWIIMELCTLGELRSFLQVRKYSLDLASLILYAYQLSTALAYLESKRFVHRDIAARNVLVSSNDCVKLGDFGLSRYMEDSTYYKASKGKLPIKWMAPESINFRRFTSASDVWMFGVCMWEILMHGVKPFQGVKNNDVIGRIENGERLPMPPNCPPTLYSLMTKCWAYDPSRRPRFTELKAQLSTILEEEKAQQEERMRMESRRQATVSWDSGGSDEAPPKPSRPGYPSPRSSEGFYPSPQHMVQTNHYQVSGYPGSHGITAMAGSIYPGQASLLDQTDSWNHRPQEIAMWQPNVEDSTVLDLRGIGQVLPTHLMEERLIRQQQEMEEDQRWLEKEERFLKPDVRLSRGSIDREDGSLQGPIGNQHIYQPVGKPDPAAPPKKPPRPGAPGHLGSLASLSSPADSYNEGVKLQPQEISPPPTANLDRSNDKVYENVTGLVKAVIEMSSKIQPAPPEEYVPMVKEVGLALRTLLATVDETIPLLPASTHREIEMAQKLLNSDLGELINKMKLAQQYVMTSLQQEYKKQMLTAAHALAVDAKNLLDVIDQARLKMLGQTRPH
Assay: KINOMEscan competition binding
Conditions: compound 10.0 µM
parameter: kinase still bound, per cent of control (%)
API: value field is a number in %; no unit string.

Here's what some known entries look like.
>  <chemical.structure>
COc1ccc(CNC(=O)Nc2ncc([N+](=O)[O-])s2)cc1

>  <kinase still bound, per cent of control, %>
91

$$$$
>  <chemical.structure>
Cn1cc(C2=C(c3ccc(Cl)cc3Cl)C(=O)NC2=O)c2ccccc21

>  <kinase still bound, per cent of control, %>
84

$$$$
>  <chemical.structure>
Cc1cnc(-c2cnc(NCCNc3ccc(C#N)cn3)nc2-c2ccc(Cl)cc2Cl)[nH]1

>  <kinase still bound, per cent of control, %>
96

$$$$

Here is the next item to consider.
The recorded kinase still bound, per cent of control for `O=C1Nc2cc(Br)ccc2/C1=C1/Nc2ccccc2/C1=N\O` is 49
